Ref: paper PMC4457826

SYSTEM_TESTED: T1, USP7-CTD (535-1102) (human, UniProt Q93009 535-1102)
T1 construct: USP7, human, residues 535-1102 (spacer helix and five Ubl domains); Cloned in p15TV-L; also called WT USP7-CTD; C-terminal domain; source: E. coli BL21(DE3)mgk, purified (nickel-NTA, SEC)
EXPERIMENT_NOTES: fluorescence polarisation; competition: fixed USP7-CTD (8 μM), 40 nM FITC-UHRF1, increasing unlabeled ICP0 peptide (0 to 2500 μM)
TEST_CONDITIONS: both partners purified
No end group written: not given here.
ASSAY_READOUT: pKi
pKi here is simply -log10 of the concentration when that concentration is written in mol/L.

// pKi lookup, binder = GPRKCARKTRH (not fully specified) [unlabeled ICP0 peptide] , result: 4.69
